experiment: Prodrug activation assessed as induction of NaBH4-induced […] release at 60 mM after 16 hrs by head space gas chromatography mass spectrometry analysis; settings: 60000 µM

{"item-smiles": "C[Se]/C(=N\\C(=O)c1c2ccccc2nc2ccccc12)NC(=O)c1c2ccccc2nc2ccccc12", "Drug metabolism": "Active"}
{"item-smiles": "C[Se]/C(=N\\C(=O)c1cnc2ccccc2c1)NC(=O)c1cnc2ccccc2c1", "Drug metabolism": "Active"}
{"item-smiles": "C[Se]/C(=N\\C(=O)c1ccco1)NC(=O)c1ccco1", "Drug metabolism": "Active"}
{"item-smiles": "C[Se]/C(=N\\C(=O)c1cccs1)NC(=O)c1cccs1", "Drug metabolism": "Active"}

* * *

tested on: MCF7; assay: Cytotoxicity against human MCF7 cells after 72 hrs by MTT assay; assay type: functional; settings: MCF7, 72 h, read-out: pGI50 (converted)
recorded-endpoint: log10 GI50 (log10 of the value in nM)
Use the decimal logarithm of GI50 (nM).

Exam item: Record C[Se]/C(=N\C(=O)c1c2ccccc2nc2ccccc12)NC(=O)c1c2ccccc2nc2ccccc12 : what is its log10 GI50 with MCF7?
Marked response: 4.87

* * *

test system: MCF7; experiment: Cytotoxicity against human MCF7 cells after 72 hrs by MTT assay; type: functional; conditions: MCF7, 72 h, read-out: pGI50 (converted)
Let's look at some compounds and their measured GI50.
Express your answer in nM, writing the number without its unit.

{"item-smiles": "C[Se]/C(=N\\C(=O)c1cnc2ccccc2c1)NC(=O)c1cnc2ccccc2c1", "endpoint-result": 660}

Exam item: Which measured GI50 value corresponds to C[Se]/C(=N\C(=O)c1ccc2c(c1)OCO2)NC(=O)c1ccc2c(c1)OCO2 ?
Marked response: 990

Exam item: Which measured GI50 value corresponds to C[Se]/C(=N\C(=O)c1cc2ccccc2s1)NC(=O)c1cc2ccccc2s1 ?
Marked response: 5070

Exam item: Which measured GI50 value corresponds to C[Se]/C(=N\C(=O)c1cc(-c2ccccc2)nc2ccccc12)NC(=O)c1cc(-c2ccccc2)nc2ccccc12 ?
Marked response: 490
